// provenance: ChEMBL document CHEMBL1201862

Test system: SR
Test: NCI tumour cell line growth inhibition, 48 h
Calls of active or inactive are those of the source. Cut-off read from the data, not from the text of the source: active = GI50 up to about 1.1 µM and inactive = higher.
Returns: one label drawn from 1 (active), -1 (inactive)

Query :: Please state the recorded outcome for this compound: CC(C)(O)/C=C/C(=O)[C@](C)(O)[C@H]1[C@H](O)C[C@@]2(C)[C@@H]3CC=C4[C@@H](C[C@H](O)C(=O)C4(C)C)[C@]3(C)C(=O)C[C@]12C
Result :: 1

Query :: Consider next the compound COc1cc(C=O)cc(/C=N/c2ccc(S(N)(=O)=O)cc2)c1O in the same way.
Result :: -1

Query :: Another compound to check: COc1cc(/C=C2/C(=O)NC(Cc3cc(OC)c(OC)c(C)c3OC)C(=O)N2Cc2ccccc2)c(OC)c(C)c1OC (stereo not drawn)
Result :: -1
